- assay.explanation: self-splicing fitness, log relative to wild type (ln ratio); higher = more splicing; Tetrahymena group I intron in knt gene, E. coli kanamycin selection, DiMSum; sequences stand for … in CUCUCU…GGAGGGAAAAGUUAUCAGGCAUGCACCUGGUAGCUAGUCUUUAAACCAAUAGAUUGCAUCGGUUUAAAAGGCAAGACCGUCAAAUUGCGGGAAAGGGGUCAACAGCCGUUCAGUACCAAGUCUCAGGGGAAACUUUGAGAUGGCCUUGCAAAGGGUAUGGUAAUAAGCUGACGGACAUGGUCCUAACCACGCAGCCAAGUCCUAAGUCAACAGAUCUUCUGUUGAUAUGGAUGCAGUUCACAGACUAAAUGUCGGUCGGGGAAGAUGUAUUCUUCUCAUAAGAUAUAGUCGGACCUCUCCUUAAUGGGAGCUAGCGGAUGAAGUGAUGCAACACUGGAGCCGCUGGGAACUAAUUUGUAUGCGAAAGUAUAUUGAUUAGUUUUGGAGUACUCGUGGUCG;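 note: selection with 25 µg/mL kanamycin versus none on LB agar overnight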
- experimental.parameters: 30 °C
Items are presented alongside their recorded self-splicing fitness (ln).
reported.endpoint: self-splicing fitness (ln)

[[record]]
input_sequence = "UCUUAGCAAUAUUACGAUGU"
reported_endpoint = "self-splicing fitness (ln)"
assay_result = -1.95

[[record]]
input_sequence = "GAAUAGCAAUAUUACGCUUU"
reported_endpoint = "self-splicing fitness (ln)"
assay_result = -2.02

[[record]]
input_sequence = "AACCAGCAAUAUUACGAAGA"
reported_endpoint = "self-splicing fitness (ln)"
assay_result = -2.02

